- System: Streptococcus pneumoniae
- assay info: Antimicrobial activity against penicillin-susceptible Streptococcus pneumoniae PU09 incubated for 20 to 24 hrs by two-fold microbroth dilution method
- Assay type: functional
Consider the following compounds and their measured MIC readings.
Provide only the numeric value, understood in µg/mL.

Request: Look up MIC: CC[C@H]1OC(=O)[C@H](C)[C@@H](O[C@H]2C[C@@](C)(OC)[C@@H](O)[C@H](C)O2)[C@H](C)[C@@H](O[C@@H]2O[C@H](C)C[C@H](N(C)C)[C@H]2O)[C@](C)(OC)C[C@@H](C)C(=O)[C@H](C)[C@@H](O)[C@]1(C)O
Response: 2

Request: Which MIC value belongs to CC[C@H]1OC(=O)[C@H](C)[C@@H](OC(=O)Cc2ccccn2)[C@H](C)[C@@H](O[C@@H]2O[C@H](C)C[C@H](N(C)C)[C@H]2O)[C@](C)(OC)C[C@@H](C)/C(=N\OCC#Cc2cncc(N)c2)[C@H](C)[C@H]2OC(=O)O[C@@]21C ?
Response: 0.5

Request: Need MIC, item CC[C@H]1OC(=O)[C@H](C)C(=O)[C@H](C)[C@@H](O[C@@H]2O[C@H](C)C[C@H](N(C)C)[C@H]2O)[C@](C)(OC)C[C@@H](C)C(=O)[C@H](C)[C@H]2N(CCCCn3cnc(-c4cccnc4)c3)C(=O)O[C@]12C
Response: 0.25

Let us examine a further case.
Request: Form field: reported MIC of CC[C@H]1OC(=O)[C@H](C)[C@@H](OC(=O)Cc2ccccn2)[C@H](C)[C@@H](O[C@@H]2O[C@H](C)C[C@H](N(C)C)[C@H]2O)[C@](C)(OC)C[C@@H](C)/C(=N\OCC#Cc2cccc(NC(=O)Cc3ccccn3)n2)[C@H](C)[C@H]2OC(=O)O[C@@]21C
Response: 2

Values were extracted from ChEMBL document CHEMBL3611985.
